From: ChEMBL document CHEMBL1127009

Target: Integrin alpha-IIb/beta-3 (Homo sapiens, UniProt P05106+P08514)
Sequence (P05106 27-788 limits assumed): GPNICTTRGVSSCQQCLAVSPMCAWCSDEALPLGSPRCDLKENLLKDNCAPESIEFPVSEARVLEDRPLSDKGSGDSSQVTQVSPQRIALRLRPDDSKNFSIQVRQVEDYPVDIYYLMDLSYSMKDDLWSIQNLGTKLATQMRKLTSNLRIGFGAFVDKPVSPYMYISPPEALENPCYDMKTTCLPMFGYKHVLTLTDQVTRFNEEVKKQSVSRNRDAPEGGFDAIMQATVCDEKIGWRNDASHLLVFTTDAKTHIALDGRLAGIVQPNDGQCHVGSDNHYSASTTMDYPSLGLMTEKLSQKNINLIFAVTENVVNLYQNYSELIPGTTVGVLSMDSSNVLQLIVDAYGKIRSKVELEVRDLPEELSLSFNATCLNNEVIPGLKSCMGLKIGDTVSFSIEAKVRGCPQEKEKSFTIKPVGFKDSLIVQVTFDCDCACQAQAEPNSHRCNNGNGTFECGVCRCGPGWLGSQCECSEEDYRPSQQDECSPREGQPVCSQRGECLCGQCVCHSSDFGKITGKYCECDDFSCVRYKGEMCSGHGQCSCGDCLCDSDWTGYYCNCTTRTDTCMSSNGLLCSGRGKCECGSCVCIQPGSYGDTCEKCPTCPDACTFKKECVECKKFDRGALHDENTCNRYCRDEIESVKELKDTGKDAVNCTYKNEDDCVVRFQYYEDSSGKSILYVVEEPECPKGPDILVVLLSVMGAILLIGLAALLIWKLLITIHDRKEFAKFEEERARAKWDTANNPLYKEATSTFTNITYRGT
Sequence (P08514 32-887 limits assumed): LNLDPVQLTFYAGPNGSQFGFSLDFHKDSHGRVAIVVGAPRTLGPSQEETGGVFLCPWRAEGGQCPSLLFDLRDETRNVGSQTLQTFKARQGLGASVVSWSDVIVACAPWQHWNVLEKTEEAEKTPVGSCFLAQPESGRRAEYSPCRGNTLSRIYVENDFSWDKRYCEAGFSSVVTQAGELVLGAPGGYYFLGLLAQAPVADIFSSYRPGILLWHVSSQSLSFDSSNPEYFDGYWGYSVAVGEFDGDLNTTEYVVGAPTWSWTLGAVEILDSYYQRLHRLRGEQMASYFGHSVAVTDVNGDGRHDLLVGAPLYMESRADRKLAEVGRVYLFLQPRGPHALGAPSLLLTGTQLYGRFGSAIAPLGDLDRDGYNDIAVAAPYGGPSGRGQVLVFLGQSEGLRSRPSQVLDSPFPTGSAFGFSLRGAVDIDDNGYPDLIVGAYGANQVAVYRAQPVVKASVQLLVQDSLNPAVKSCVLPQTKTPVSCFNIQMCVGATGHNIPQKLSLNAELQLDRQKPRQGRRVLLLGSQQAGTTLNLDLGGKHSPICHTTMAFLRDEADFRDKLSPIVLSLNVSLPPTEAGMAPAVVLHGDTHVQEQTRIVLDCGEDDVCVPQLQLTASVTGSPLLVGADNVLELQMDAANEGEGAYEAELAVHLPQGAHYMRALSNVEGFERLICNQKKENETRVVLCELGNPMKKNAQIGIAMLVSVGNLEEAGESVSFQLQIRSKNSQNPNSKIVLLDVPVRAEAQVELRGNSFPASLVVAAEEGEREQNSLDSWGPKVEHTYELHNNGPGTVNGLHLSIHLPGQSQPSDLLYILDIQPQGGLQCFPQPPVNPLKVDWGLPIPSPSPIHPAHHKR
Sequence (P08514 891-1039 limits assumed): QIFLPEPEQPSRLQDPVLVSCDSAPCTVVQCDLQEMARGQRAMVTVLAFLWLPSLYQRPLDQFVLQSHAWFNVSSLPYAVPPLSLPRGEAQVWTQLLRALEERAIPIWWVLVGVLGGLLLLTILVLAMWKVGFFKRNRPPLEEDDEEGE
Test: Inhibition of fibrinogen binding to purified immobilized alpha IIb beta-3 integrin isolated from membranes of human blood platelets.
REPORTED_PROPERTY: IC50 (nM)
Reply with just the number (in nM).

COC(=O)[C@H](Cn1ccc2ccccc21)NC(=O)[C@H](CC(=O)O)N1CC[C@H](NC(=O)Cc2ccc(C(=N)N)cc2)C1=O = 120

Lab note: next compound to report on.
Request - read-out IC50 | tested on Integrin alpha-IIb/beta-3 (Homo sapiens, UniProt P05106+P08514) | compound `COC(=O)[C@H](Cc1ccccc1)NC(=O)[C@H](CC(=O)O)N1CC[C@H](NC(=O)[C@H](CCCN=C(N)N)NC(=O)OCc2ccccc2)C1=O`
770

----------
Reported pIC50 by item:
Biological target: Integrin alpha-IIb/beta-3 (Homo sapiens, UniProt P05106+P08514)
Experiment: Inhibition of fibrinogen binding to purified immobilized alpha IIb beta-3 integrin isolated from membranes of human blood platelets.
Peptide text beside a SMILES is read from it. * marks the point of attachment. Cbz = O=C(OCc1ccccc1)*
By convention, pIC50 is the negative base-10 log of a molar concentration.

Field: example entries. Status: answers known.
CC(C)C[C@H](NC(=O)[C@H](CC(=O)O)N1CC[C@H](NC(=O)Cc2ccc(C(=N)N)cc2)C1=O)C(=O)O = 7.40
CC(C)[C@H](NC(=O)[C@H](CC(=O)O)NC(=O)CNC(=O)[C@H](CCCN=C(N)N)NC(=O)OCc1ccccc1)C(=O)O (Cbz-RGDV-OH) = 6.96
COC(=O)[C@H](Cc1ccccc1)NC(=O)[C@H](CC(=O)O)NC(=O)CNC(=O)[C@H](CCCN=C(N)N)NC(=O)OCc1ccccc1 (Cbz-RGDF-OMe) = 6.57
COC(=O)[C@H](CC12CC3CC(CC(C3)C1)C2)NC(=O)[C@H](CC(=O)O)N1CC[C@H](NC(=O)Cc2ccc(C(=N)N)cc2)C1=O = 7.70
COC(=O)[C@H](Cn1ccc2ccccc21)NC(=O)[C@H](CC(=O)O)N1CC[C@H](NC(=O)[C@H](CCCN=C(N)N)NC(=O)OCc2ccccc2)C1=O = 5.91

# returns recorded pIC50 (system: Integrin alpha-IIb/beta-3 (Homo sapiens, UniProt P05106+P08514)) for `N=C(N)c1ccc(CC(=O)N[C@H]2CCN([C@@H](CC(=O)O)C(=O)N[C@H](C(=O)O)C34CC5CC(CC(C5)C3)C4)C2=O)cc1`
8.70

Fill in the recorded pIC50 for this molecule, with Integrin alpha-IIb/beta-3 (Homo sapiens, UniProt P05106+P08514) as test system: `CC(C)C[C@H](NC(=O)[C@H](CC(=O)O)N1CC[C@H](NC(=O)[C@H](CCCN=C(N)N)NC(=O)OCc2ccccc2)C1=O)C(=O)O`
6.25

Notebook: pull reported pIC50 for Integrin alpha-IIb/beta-3 (Homo sapiens, UniProt P05106+P08514), entry `N=C(N)c1ccc(CC(=O)N[C@H]2CCN([C@@H](CC(=O)O)C(=O)N[C@@H](Cn3ccc4ccccc43)C(=O)O)C2=O)cc1`
7.70

Item `COC(=O)[C@H](CC12CC3CC(CC(C3)C1)C2)NC(=O)[C@H](CC(=O)O)N1CC[C@H](NC(=O)[C@H](CCCN=C(N)N)NC(=O)OCc2ccccc2)C1=O` with Integrin alpha-IIb/beta-3 (Homo sapiens, UniProt P05106+P08514) - pIC50?
6.29

----------
Species on record: Homo sapiens
Test: Inhibition of ADP-induced aggregation of human blood platelets in the presence of fibrinogen.
Type: functional
Peptide text beside a SMILES is read from it. * marks the point of attachment. Cbz = O=C(OCc1ccccc1)*
REPORTED_PROPERTY: pIC50
// field semantics: pIC50 = negative decimal log of concentration (mol/L)

COC(=O)[C@H](Cc1ccccc1)NC(=O)[C@H](CC(=O)O)N1CC[C@H](NC(=O)[C@H](CCCN=C(N)N)NC(=O)OCc2ccccc2)C1=O = 4.07

# lookup: pIC50 of COC(=O)[C@H](Cc1ccccc1)NC(=O)[C@H](CC(=O)O)NC(=O)CNC(=O)[C@H](CCCN=C(N)N)NC(=O)OCc1ccccc1 (Cbz-RGDF-OMe)
4.89

Quick one: pIC50 for `N=C(N)c1ccc(CC(=O)N[C@H]2CCN([C@@H](CC(=O)O)C(=O)N[C@@H](Cn3ccc4ccccc43)C(=O)O)C2=O)cc1` ?
6.13

Please report the recorded pIC50 for `CC(C)C[C@H](NC(=O)[C@H](CC(=O)O)N1CC[C@H](NC(=O)Cc2ccc(C(=N)N)cc2)C1=O)C(=O)O` .
6.44
